Values were extracted from PubChem BioAssay (NCI).

Test protocol: NCI Yeast Anticancer Drug Screen. Data for the cln2 rad14 strain (AID 165);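 note: 0% = growth equal to vehicle treated cultures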
Setup conditions: S. cerevisiae cln2 rad14 strain, active compounds read high; at 50.0 µM unless noted
The panel holds about 79,000 compounds, 15% with a hit somewhere; the sample as a whole holds those more often.
Binary classification by growth inhibition, with 10% as an inclusive lower bound for t; all other cases are f.

Exam item: Please indicate if the recorded growth inhibition for CCOC(=O)C(C)N1C(=O)c2ccccc2C1=O (stereo unspecified) meets or exceeds 10%.
Marked response: t

Exam item: Please indicate if the recorded growth inhibition for CC1CCCN1CCOC(=O)C(c1ccccc1)C1CCCC1 (stereo unspecified) meets or exceeds 10%.
Marked response: f

Exam item: Please indicate if the recorded growth inhibition for CN(C)/N=C/C=C1\N=C(c2ccccc2)OC1=O meets or exceeds 10%.
Marked response: f

Exam item: Please indicate if the recorded growth inhibition for N#Cc1c[nH]c(=O)[nH]c1=O meets or exceeds 10%.
Marked response: f

Exam item: Please indicate if the recorded growth inhibition for Cc1ccc(C(=O)O)c(/C=C2\Cc3cc(C)cc(C)c3C2=O)c1 meets or exceeds 10%.
Marked response: t

Exam item: Please indicate if the recorded growth inhibition for CC(O)C(O)CC(/C=N/NC(=O)c1ccccc1)=N/NC(=O)c1ccccc1 (stereo unspecified) meets or exceeds 10%.
Marked response: f

====

Test protocol: NCI Yeast Anticancer Drug Screen. Data for the bub3 strain (AID 167)
Setup conditions: S. cerevisiae bub3 mutant strain, active compounds read high; at 50.0 µM unless noted
This is part of a sample that, as a whole, favours compounds with a hit. Of some 79,000 tested, about 15% had one in any assay. Activity calls are given as the source filed them. Cut-off read from the data, not from the text of the source: active = growth inhibition above about 70%; inactive = the rest.
Metric name: growth inhibition

The measured growth inhibition associated with CC[O-].CC[O-].CN(C)c1ccc([O-])cc1.CN(C)c1ccc([O-])cc1.[Ti+4] reads -9.15% (inactive)

The measured growth inhibition associated with COc1ccc(/C(C)=N/N=C\c2cc(OC)c(OC)c(OC)c2)cc1 reads 83.2% (active)

The measured growth inhibition associated with O=C(c1ccccc1)c1ccc2c(c1)N=C(c1ccc(Cl)c(Cl)c1)CC(c1ccc3ccccc3c1)N2 (stereo not drawn) reads -3.6% (inactive)

The measured growth inhibition associated with CC(O)C(C(=O)O)N(CC1(O)OCC(O)C(O)C1O)N=O (stereo not drawn) reads -2.65% (inactive)

The measured growth inhibition associated with COC(=O)CSSC(C)C reads 6.4% (inactive)

The measured growth inhibition associated with O=C(O)CCN(CCCCN(CCC(=O)O)CCC(=O)O)CCC(=O)O reads 1.25% (inactive)

The measured growth inhibition associated with Cc1cc(-c2cccc3ccccc23)[n+]([O-])cc1C reads -24.1% (inactive)

The measured growth inhibition associated with C[C@]12CCC(=O)C=C1CC[C@H]1[C@@H]3CC[C@](O)(C(=O)CO)[C@@]3(C)CC(=O)[C@@]12SC(N)=O reads 6.1% (inactive)

====

Give measured growth inhibition for each item. Keep answers brief.
Test protocol: NCI Yeast Anticancer Drug Screen. Data for the cln2 rad14 strain (AID 165);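 note: 0% = growth equal to vehicle treated cultures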
Setup conditions: S. cerevisiae cln2 rad14 strain, active compounds read high; at 50.0 µM unless noted
Compounds without any hit were thinned out: in the full panel of roughly 79,000, 15% have a hit.
A number alone suffices; assume %.

The measured growth inhibition associated with Cc1ccc2cc(-c3ccccc3)[nH]c2c1 reads -13.4

The measured growth inhibition associated with CC(=O)Nc1ccn(C2OC(CO)C(O)C2O)c(=O)n1 (configuration not stated) reads 31.1

The measured growth inhibition associated with CC(=O)OCCc1cc2ccccc2oc1=O reads 8.6

The measured growth inhibition associated with CN=C1CC2c3cc(OC)c(OC)cc3CCN2C2=C1C(=O)CC(C)(C)C2 (configuration not stated) reads -19

The measured growth inhibition associated with O=[N+]([O-])c1ccc(N=Cc2ccc(N(CCF)CCF)cc2)cc1 reads -60

The measured growth inhibition associated with CC(C)(C)OC(=O)/N=C/c1c(O)c2ccccc2oc1=O reads 9.75

The measured growth inhibition associated with O=C(O)COc1ccc(C2CCc3ccccc32)cc1 (configuration not stated) reads 16

The measured growth inhibition associated with Cc1nc(N)c(N)c(=O)[nH]1 reads -5.6

The measured growth inhibition associated with Cc1[nH]n(C(N)=S)c(=O)c1N=Nc1ccc([N+](=O)[O-])cc1Cl reads -46.5

The measured growth inhibition associated with N#C/C(=C/n1c(=S)[nH]c2ccccc21)C(N)=O reads -12.4

The measured growth inhibition associated with COc1ccc(C2c3c(ccc4ccccc34)Oc3ccc4ccccc4c32)cc1 reads 6.85

The measured growth inhibition associated with Cc1ccc(N2C(=O)CC(N3CCCCC3)C2=O)cc1 (configuration not stated) reads 13.2

====

Test protocol: NCI Yeast Anticancer Drug Screen. Data for the bub3 strain (AID 167)
Setup conditions: S. cerevisiae bub3 mutant strain, active compounds read high; at 50.0 µM unless noted
The panel holds about 79,000 compounds, 15% with a hit somewhere; the sample as a whole holds those more often.
Give measured growth inhibition for each item. Keep answers brief.
A number alone suffices; assume %.

The measured growth inhibition associated with COC(=O)C(Cc1nc2ccc(Cl)cc2[nH]c1=O)/C(=N\N)C(=O)Nc1cc(C)c(Cl)cc1S(=O)(=O)O (stereo not drawn) reads -3.35

The measured growth inhibition associated with C=CCOC(=O)c1ccccc1 reads -9.55

The measured growth inhibition associated with Cc1cc2c(c(C(=O)O)c1C)-c1cccc(Cl)c1C2=O reads -13.3

The measured growth inhibition associated with O=C(NO)c1ccccc1 reads -4

The measured growth inhibition associated with NC(=O)c1ccc[n+]([O-])c1 reads 2.65

The measured growth inhibition associated with COC(=O)c1nnn(-c2ccc(Cl)cc2C)c1C(=O)c1ccc(OC)cc1 reads -9.1

The measured growth inhibition associated with C/C(=C\CNc1ncnc2c1ncn2CCC#N)CO reads 14.8

The measured growth inhibition associated with COc1ccc(/C=N/NC(=O)c2sc(=S)n(-c3ccccc3)c2N)cc1 reads -17.1

The measured growth inhibition associated with Clc1cc2cc3cccc[n+]3cc2cc1Cl reads 14.6

The measured growth inhibition associated with Cc1ccc(S(=O)(=O)OC2CSS(=O)CC2OS(=O)(=O)c2ccc(C)cc2)cc1 (stereo not drawn) reads -1.4

The measured growth inhibition associated with O=C1C=C(Nc2ccccc2)C(=O)C=C1Nc1ccccc1 reads 4.15

The measured growth inhibition associated with COc1ccc(C(c2cc3c(cc2O)OCO3)N2CCN(C(c3ccc(OC)c(OC)c3)c3cc4c(cc3O)OCO4)CC2)cc1OC (stereo not drawn) reads 2.2

The measured growth inhibition associated with Nc1ncnc2c1ncn2C1OC(CO)C(NC(=O)C(N)Cc2ccccc2)C1O (stereo not drawn) reads 2.15

The measured growth inhibition associated with CC1(C)OC1CS(=O)c1ccccc1 (stereo not drawn) reads 5.5

The measured growth inhibition associated with CCN(CC)c1c(C)c(-c2ccccc2)n[n+]([O-])c1-c1ccccc1 reads 17.9

The measured growth inhibition associated with CCCCCP(=O)(O)O.[Cu+2] reads -31.6

The measured growth inhibition associated with C/C(CCCCCCCCCCCC/C(C)=N\Nc1ccc([N+](=O)[O-])cc1[N+](=O)[O-])=N/Nc1ccc([N+](=O)[O-])cc1[N+](=O)[O-] reads 2.3

The measured growth inhibition associated with Clc1ccc2[nH]c3c(c2c1)CCCC3 reads 2.55

The measured growth inhibition associated with CN(C)c1cccc2ccccc12 reads 6

The measured growth inhibition associated with COC(=O)[C@@H]1Cc2cc(O)c(O)cc2C2(CCN(C)CC2)O1 reads -10.7

The measured growth inhibition associated with COCS(=O)(=O)c1ccccc1 reads 6.55

The measured growth inhibition associated with C[C@H](CCC1=NCCN1)[C@H]1CC[C@H]2[C@@H]3CC[C@@H]4C[C@H](O)CC[C@]4(C)[C@H]3CC[C@]12C reads 91.1

The measured growth inhibition associated with CC(=O)c1cccc(NC(=O)Oc2cc(=O)oc3ccccc23)c1 reads 38.2

The measured growth inhibition associated with O=C(O)c1nc(-c2ccccc2)ncc1-c1nnnn1-c1ccccc1 reads -18.7

The measured growth inhibition associated with CC1=C(c2ccccc2)C(c2ccccc2)=C(C)C1=NNc1ccc([N+](=O)[O-])cc1[N+](=O)[O-] reads -3.25

The measured growth inhibition associated with CC(C)CC(NC=O)C(=O)O (stereo not drawn) reads -0.3

The measured growth inhibition associated with Cc1ccc(C)c(N=Nc2c(C)nc(N)nc2C)c1 reads -22.1

The measured growth inhibition associated with CC(C)(C)c1cc(-n2nc3ccccc3[n+]2[O-])c(O)c(C(C)(C)C)c1 reads -0.6

The measured growth inhibition associated with CCCCOC(=O)NC(=O)c1cc2cc(Cl)ccc2oc1=O reads 23.1

The measured growth inhibition associated with CC(=O)CC(=O)Nc1ccc(OS(N)(=O)=O)cc1 reads 2.3

The measured growth inhibition associated with CC(C)/C(Cl)=N/OC(=O)Nc1ccc(F)c(Cl)c1 reads 60.8

The measured growth inhibition associated with Cc1ccc(Nc2cc(C(=O)O)c(Nc3ccc(C)cc3)cc2C(=O)O)cc1 reads 7.85

The measured growth inhibition associated with O=C(O)c1ccc(P(=O)(O)O)cc1[N+](=O)[O-] reads 4.25

The measured growth inhibition associated with CCNc1ncnc2ncn(C)c12 reads 15.1

The measured growth inhibition associated with CCC(O)(c1ccccc1)C(O)(CC)c1ccccc1 (stereo not drawn) reads -13

The measured growth inhibition associated with CN(C)c1ccc(/C=C(\C#N)c2ccc(F)cc2)cc1 reads -6.75

The measured growth inhibition associated with O=C(O)C1C2CCCC21 (stereo not drawn) reads 2

The measured growth inhibition associated with O=C1COC(=O)CO1 reads 8.55

The measured growth inhibition associated with CC#CC#C/C(=C/C=CC(=O)OC)SC reads 6.6

The measured growth inhibition associated with COc1cccc2c1C(=O)c1c(O)c3c(c(O)c1C2=O)C[C@@](O)(C(=O)CO)CC3OC1CC(O)C(O)C(C)O1 (stereo partly drawn) reads 63.2

The measured growth inhibition associated with c1ccc(C(=NN=C(c2ccccc2)c2ccccc2)c2ccccc2)cc1 reads 1.25

The measured growth inhibition associated with Cc1ccccc1C(=O)NC(O)(C(F)(F)F)C(F)(F)F reads 16.9

The measured growth inhibition associated with Cc1cc[nH]c(=O)c1[N+](=O)[O-] reads -9.65

The measured growth inhibition associated with CCOc1ccc(/C=C/C(=O)c2sc(NNC(C)=O)nc2C)cc1 reads 25.9

The measured growth inhibition associated with CC(C)(C)SC(=S)SCC(=O)c1ccc(F)cc1 reads -1.65

The measured growth inhibition associated with COC(=O)CCn1cnc2c(SC)ncnc21 reads 19.2

The measured growth inhibition associated with Cc1c2noc1CCCCCCCCCCC2 reads -13.7

The measured growth inhibition associated with CCN(CC)CCNc1c(OC)c(OC)cc2nccnc12 reads 0.2
